tested on: Escherichia coli IAI1; assay: fold change of Putrescine concentration vs plate DMSO controls (fold change (ratio)); higher = more amine produced, active = hit call of the paper (significant change in both replicates, either direction); settings: 20 µM; incubation time: 27 h, anaerobic, 37 °C
Counter-ions that a name gives are not always drawn.
Listing of entries alongside the reported fold change of Putrescine concentration.
Reported metric: fold change of Putrescine concentration

# Compound, Experimental system, Result number
data = [
    ("Cc1ccc(/N=C/N(C)/C=N/c2ccc(C)cc2C)c(C)c1", "Escherichia coli IAI1", 0.981),
    ("CC1(C)CON(Cc2ccccc2Cl)C1=O", "Escherichia coli IAI1", 1.01),
    ("CN1[C@@H]2CC[C@H]1C[C@@H](OC(=O)[C@H](CO)c1ccccc1)C2", "Escherichia coli IAI1", 0.992),
    ("CCC(CC)Nc1c([N+](=O)[O-])cc(C)c(C)c1[N+](=O)[O-]", "Escherichia coli IAI1", 0.991),
    ("C[C@]12CCC(=O)C=C1C=C[C@@H]1[C@@H]2CC[C@@]2(C)[C@H]1CC[C@@]2(O)CCC(=O)O [Canrenoic acid potassium salt]", "Escherichia coli IAI1", 1.02),
]

----------
tested on: Klebsiella aerogenes DSM 30053; assay: fold change of Cadaverine concentration vs plate DMSO controls (fold change (ratio)); higher = more amine produced, active = hit call of the paper (significant change in both replicates, either direction); details: 20 µM; incubation time: 27 h, anaerobic, 37 °C
Counter-ions that a name gives are not always drawn.
Reported metric: fold change of Cadaverine concentration

# Molecule, Result number
records = [
    ("CCc1cnc(C2=NC(C)(C(C)C)C(=O)N2)c(C(=O)O)c1 (stereo not given)", 0.993),
    ("C=CC[C@]1(O)CC[C@H]2[C@@H]3CCC4=CC(=O)CCC4=C3C=C[C@@]21C", 1.01),
    ("CC(C)C[C@H](CN)CC(=O)O", 0.982),
    ("C[N+]1([O-])[C@@H]2C[C@@H](OC(=O)[C@H](CO)c3ccccc3)C[C@H]1[C@@H]1O[C@@H]12 (stereo not given in full) [Scopolamin-N-oxide hydrobromide]", 1.01),
    ("Cc1cccc(C)c1NC1=NCCCS1", 0.993),
    ("Cc1nc(N(C)C)nc(OC(=O)N(C)C)c1C", 1),
    ("C[N+]1(C)CCCCC1", 1.02),
    ("Fc1ccc(Oc2ccnc3cc(Cl)cc(Cl)c23)cc1", 1),
    ("C[C@@H]1C[C@@H]([C@H](O)CC2CC(=O)NC(=O)C2)C(=O)[C@@H](C)C1 [Cycloheximide]", 0.998),
    ("CC(C)N(C(=O)COc1nnc(C(F)(F)F)s1)c1ccc(F)cc1", 0.989),
    ("CC(C)N(C)S(=O)(=O)NC(=O)c1cc(-n2c(=O)cc(C(F)(F)F)n(C)c2=O)c(F)cc1Cl", 0.993),
    ("Cc1cccc(C)c1NC(=O)CN1CCCC1=O", 1),
    ("C[C@]12CC[C@H](O)C[C@@H]1CC[C@@H]1[C@@H]2CC[C@]2(C)C(=O)CC[C@@H]12 [Epiandrosterone]", 1),
    ("CC(C)c1c(CN(C)C(C)Cc2ccccc2)n(C)n(-c2ccccc2)c1=O (stereo not given)", 1.01),
    ("CO[C@]12C[C@@H](COC(=O)c3cncc(Br)c3)CN(C)[C@@H]1Cc1cn(C)c3cccc2c13", 1.02),
    ("CC1(C)[C@H](/C=C(\\Cl)C(F)(F)F)[C@@H]1C(=O)OC(C#N)c1cccc(Oc2ccccc2)c1 (stereo not given in full)", 0.995),
    ("CNC(=O)Oc1cccc(/N=C/N(C)C)c1", 1),
    ("O=S(=O)(c1ccc(O)cc1)c1ccc(O)cc1", 0.998),
    ("N[C@@H]1C[C@H]1c1ccccc1 [Tranylcypromine hydrochloride]", 0.995),
    ("CCC1(C)CC(=O)NC(=O)C1 [Bemegride]", 0.991),
]
